- studyTarget: AarF domain-containing protein kinase 1 (Homo sapiens); further: in the data inactive means no Kd found up to 30 µM
- Sequence (Q86TW2 whole entry, the tested form may be a part): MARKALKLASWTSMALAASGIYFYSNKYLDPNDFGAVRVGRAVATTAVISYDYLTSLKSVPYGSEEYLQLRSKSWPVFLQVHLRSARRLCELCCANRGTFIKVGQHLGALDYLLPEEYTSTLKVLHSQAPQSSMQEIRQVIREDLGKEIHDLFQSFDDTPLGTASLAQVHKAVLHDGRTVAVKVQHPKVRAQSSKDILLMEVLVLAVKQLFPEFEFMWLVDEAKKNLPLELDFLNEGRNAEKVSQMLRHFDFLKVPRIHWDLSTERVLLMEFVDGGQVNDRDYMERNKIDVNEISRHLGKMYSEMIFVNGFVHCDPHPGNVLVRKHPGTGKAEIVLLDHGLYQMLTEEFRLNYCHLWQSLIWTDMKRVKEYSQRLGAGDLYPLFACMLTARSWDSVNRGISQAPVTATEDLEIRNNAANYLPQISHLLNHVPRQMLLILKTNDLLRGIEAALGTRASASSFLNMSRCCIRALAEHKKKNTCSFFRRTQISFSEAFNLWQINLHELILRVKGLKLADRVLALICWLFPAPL
The source made the active and inactive calls.
Thanks in advance; please answer with one of these: active, inactive

Challenge: In this assay, the call recorded for O=C(Nc1c[nH]nc1-c1nc2cc(CN3CCOCC3)ccc2[nH]1)NC1CC1 was what?
Response given: active

Challenge: Also C[C@@H](Oc1cc(C(=O)Nc2ccc(C(=O)N3CCN(C)CC3)cc2)nnc1N)c1c(Cl)ccc(F)c1Cl ?
Response given: inactive

Challenge: And for CCOc1cc2ncc(C#N)c(Nc3ccc(F)c(Cl)c3)c2cc1NC(=O)/C=C/CN(C)C ?
Response given: inactive

Challenge: Note, next up: C[C@@H](Oc1cc(-n2cnc3ccc(CN4CCN(C)CC4)cc32)sc1C(N)=O)c1ccccc1C(F)(F)F
Response given: inactive

Challenge: Again, but for CNC(=O)c1cccc2cc(Oc3ccnc4cc(OCC5(N)CC5)c(OC)cc34)ccc12
Response given: inactive

Challenge: Can you handle COCc1c(-c2ccc(NC(=O)Nc3cc(C(F)(F)F)ccc3F)c(F)c2)c2c(N)ncnn2c1CN1CCOCC1 next?
Response given: inactive

Challenge: Note, next up: C=CC(=O)N1CCC[C@H](n2c(=O)n(-c3ccc(Oc4ccccc4)cc3)c3c(N)ncnc32)C1
Response given: inactive
